assay: binding assay: biotinylated synthetic peptide on streptavidin plate, titrated with biotinylated glycopeptide antibiotic; conditions: synthetic peptides; biotinylated vancomycin; read-out: EC50 (μM) for vancomycin binding
measure-name: EC50 (µM)
Give the number; µM is assumed, so skip it.

The examples below pair each entry with its known result.
PCELIDMFGNDHCP [compound 3]    0.82
CLIDMYGVCHNFDGAYDS [compound 1]    0.1
CLFDIFGVCHSFDGAYDS [compound 2]    0.06
SCDMLFCENFSGSGNNWFS [compound 4]    10

Entry SLIDMYGVCHNFDGAYDS [compound 5] needs its EC50 filled in; supply it.
10

Origin of measurements: patent US20100098737A1
